Reported T/C is given for each of the following compounds.
- Test system: BDF1 mice, B16 melanoma ip, median survival T/C
- method-notes: NCI In Vivo Anticancer Drug Screen. Data for tumor model B16 Melanoma (intraperitoneal) in B6D2F1 (BDF1) mice
- test-settings: endpoint: median survival time; dose: 25.0 mg/kg/injection; schedule: Q01DX009 (ip); vehicle: water; higher = longer survival
Toxic doses and inconclusive results are not listed.
readout-name: T/C

compound	reading
COc1cccc2c1C(=O)c1c(O)c3c(c(O)c1C2=O)C[C@@](O)(C(=O)CN1CCOCC1)C[C@@H]3OC1CC(N)C(O)C(C)O1 (some centres undefined)	157 % of control
COc1cc2cc3c4cc(OC)c(OC)cc4cc[n+]3c(C)c2cc1OC (tested in a mixture with another compound)	109 % of control
CC1(O)Nc2nc3c(ncn3C3OC(CO)C(O)C3O)c(=O)n2C1O (centres undefined)	103 % of control
O=S(=O)(NC(=S)S)c1ccccc1	94 % of control

###

- Tested on: BDF1 mice, B16 melanoma ip, median survival T/C
- method-notes: NCI In Vivo Anticancer Drug Screen. Data for tumor model B16 Melanoma (intraperitoneal) in B6D2F1 (BDF1) mice
- test-settings: endpoint: median survival time; dose: 200.0 mg/kg/injection; schedule: Q01DX009 (ip); vehicle: Klucel (hydroxypropylcellulose) (HPC); higher = longer survival
Inconclusive results and toxic doses are left out.
Reported T/C is given for each of the following compounds.

compound	target-of-assay	T/C
O=C(Nc1ccc(F)cc1)NC1CCCCC1	BDF1 mice, B16 melanoma ip, median survival T/C	100 % of control
CCCCCCCCC(O)CC (stereo not drawn)	BDF1 mice, B16 melanoma ip, median survival T/C	93 % of control
O=C(O)/C=C/C(=O)Nc1ccc(N=Nc2ccccc2)cc1	BDF1 mice, B16 melanoma ip, median survival T/C	97 % of control

###

- System: BDF1 mice, B16 melanoma ip, median survival T/C
- method-notes: NCI In Vivo Anticancer Drug Screen. Data for tumor model B16 Melanoma (intraperitoneal) in B6D2F1 (BDF1) mice
- test-settings: endpoint: median survival time; dose: 100.0 mg/kg/injection; schedule: Q01DX009 (ip); vehicle: Klucel (hydroxypropylcellulose) (HPC); higher = longer survival
Toxic doses and inconclusive results are not listed.
Reported T/C is given for each of the following compounds.

compound	T/C
CN(C)c1ccc2c(SCC(=O)OCC(=O)[C@@]3(O)CC[C@H]4[C@@H]5CCC6=CC(=O)C=C[C@]6(C)[C@H]5C(=O)C[C@@]43C)c3ccc(N(C)C)cc3nc2c1	101 % of control
Brc1nnnn1-c1ccccc1	90 % of control
ClCCOC1COC(OCCCl)CO1 (stereo unspecified)	98 % of control
CC[C@@H]1C[C@@H]2CN3CCc4c([nH]c5ccc(OC)cc45)C(C(=O)OC)(C2)C13	106 % of control
Cc1cc(Cl)ccc1NC(=O)c1cccc(C(=O)Nc2ccc(Cl)cc2C)c1	100 % of control
CN(C1=NS(=O)(=O)N=C(N(C)c2ccccc2)O1)c1ccccc1	96 % of control
CCC(C(N)=O)C1=CCCCC1 (stereo unspecified)	105 % of control
O=[N+]([O-])c1cc(C(F)(F)F)ccc1F	108 % of control
COc1cc2c(cc1OC)C1CC(=O)C(CC(C)C)CN1CC2 (stereo unspecified)	97 % of control
C[C@]12CC[C@@H]3c4ccc(O)cc4CC[C@H]3[C@@H]1CC[C@@H]2O	88 % of control
CC(=O)NC(Cc1cc(I)c(O)c(I)c1)C(=O)O (stereo unspecified)	98 % of control
